Source: PubChem BioAssay AID434970

Tested on: intestinal alkaline phosphatase [Mus musculus]
measurement description: mouse intestinal phosphatase enzyme activation – biochemical, luminescence, single concentration, confirmation (AID 434970)
run conditions: purified mouse IAP, CDP-Star luminescence, 30 min, at 10 µM; measured here: IAP activation factor, stronger effect = higher value
In all, about 11,000 compounds went through this assay and about 310 (2.8%) were called active. The list comes from a sample in which actives are over-represented; it also holds close analogues and randomly drawn compounds.
quantity name: activation factor
Quick one: just the number, no unit, thanks!

>>> value_observed("CC(C)C(OC(=O)c1ccco1)C(=O)NC1CCCCC1 (stereo not drawn)")
0.964
>>> value_observed("CC(Sc1nnc(-c2ccco2)o1)C(=O)Nc1ccc(OC(F)F)cc1 (stereo not drawn)")
0.893
>>> value_observed("Cc1cc(C)c2c(n1)sc1c(=O)[nH]c(SCc3ccccc3)nc12")
0.801
>>> value_observed("CC(CNC(=S)Nc1cc(F)cc(F)c1)CSc1ccc(Cl)cc1 (stereo not drawn)")
1.3
>>> value_observed("C#CCOCCOCCOCCNc1nc(N2CCN(C(=O)CCCCCCCCCCNC(=O)Cn3cc(CCCCCN)nn3)CC2)nc(N2CCN(C(=O)CCCCCCCCCCNC(=O)[C@H]([C@@H](C)CC)n3cc(CCCCCN)nn3)CC2)n1")
3.67

# lookup: activation factor of CCOc1ccc(N2CC(C(=O)NCCCN3CCOCC3)CC2=O)cc1 (stereo not drawn) 0.917

I have this compound here, CCn1c(SCC(=O)Nc2nccs2)nnc1-c1cc2cccc(OC)c2o1 , and I need its recorded activation factor. 0.881

Can you share its activation factor? I mean this compound: C#CCOCCOCCOCCNc1nc(N2CCN(C(=O)CCCCCCCCCCNC(=O)Cn3cc(CCCCCN)nn3)CC2)nc(N2CCN(C(=O)CCCCCCCCCCNC(=O)[C@H]([C@@H](C)CC)n3cc(CCCCN=C(N)N)nn3)CC2)n1 10

----------
System: intestinal alkaline phosphatase [Mus musculus]
measurement description: mouse intestinal phosphatase enzyme activation – biochemical, luminescence, single concentration, confirmation (AID 434970)
run conditions: purified mouse IAP, CDP-Star luminescence, 30 min, at 10 µM; measured here: IAP activation factor, stronger effect = higher value
The campaign covered roughly 11,000 compounds. About 310 (2.8%) were called active. The sample holds actives, similar compounds and a random draw of the others, so the mix is not that of the screen.
quantity name: activation factor
Answer with the value's number alone.

Sample answers from the record:
>>> value_observed("COCCn1c(SCC(=O)Nc2nc3ccccc3s2)nnc1-c1ccoc1C")
0.944
>>> value_observed("O=C(c1ccc(F)cc1)N1CCN(Cc2ccccc2Br)CC1")
0.984
>>> value_observed("FC(F)Oc1ccc(NC(=S)NC2CCSc3ccccc32)cc1 (stereo not drawn)")
2.75

Give the measured activation factor of Cc1ccc(Nc2c3c(nc4ncnn24)CC(C)CC3)cc1 (stereo not drawn) . 1.02

For the molecule shown here, COCc1c(C)cc(C)c(/C=N/O)c1C , give the reported activation factor. 0.951

Fill in the blank: the reported activation factor of COc1ccc(OC)c(S(=O)(=O)n2ccnc2C)c1 is ____. 0.998

Recorded activation factor of C/C(=N\NC(=O)c1nn(C)cc1Br)c1cccc(NC(=O)C2CCCC2)c1 , please. 1.03

# input molecule: Cc1cccc(NC(=S)NC2CCSc3ccccc32)c1 (stereo not drawn) ; wanted: its activation factor 3.43

----------
System: intestinal alkaline phosphatase [Mus musculus]
measurement description: mouse intestinal phosphatase enzyme activation – biochemical, luminescence, single concentration, confirmation (AID 434970)
run conditions: purified mouse IAP, CDP-Star luminescence, 30 min, at 10 µM; stronger effect = lower value
In all, about 11,000 compounds went through this assay and about 310 (2.8%) were called active. This excerpt belongs to a sample that is enriched for actives.
Recorded activity change, negative = activation values for a group of compounds are listed next.
The reply should contain only the number, in %.

>>> value_observed("Cc1ccc(-c2csc(N)n2)s1")
78

I'm curious: which activity change, negative = activation was measured for C#CCOCCOCCOCCNc1nc(N2CCN(C(=O)CCCCCCCCCCNC(=O)[C@H]([C@@H](C)CC)n3cc(CCCCN=C(N)N)nn3)CC2)nc(N2CCN(C(=O)CCCCCCCCCCNC(=O)[C@H](CCCCN)n3cc(C)nn3)CC2)n1 tested on intestinal alkaline phosphatase [Mus musculus]? -754

Which activity change, negative = activation is reported with intestinal alkaline phosphatase [Mus musculus] for this entry: Cc1cc(C)c2c(n1)nn1c(NCCOCCO)cc(C)nc21 ? 3.25

Value wanted: activity change, negative = activation (intestinal alkaline phosphatase [Mus musculus]) of entry C#CCOCCOCCOCCNc1nc(N2CCN(C(=O)CCCCCCCCCCNC(=O)[C@H](CCCCN)n3cc(C)nn3)CC2)nc(N2CCN(C(=O)CCCCCCCCCCNC(=O)[C@@H]([C@H](C)CC)n3cc(CCCCCN)nn3)CC2)n1 -263

Please state recorded activity change, negative = activation (tested on intestinal alkaline phosphatase [Mus musculus]) of COc1ccc(NS(=O)(=O)c2ccc(OC)c(OC)c2)cc1OC 5.5

----------
System: intestinal alkaline phosphatase [Mus musculus]
measurement description: mouse intestinal phosphatase enzyme activation – biochemical, luminescence, single concentration, confirmation (AID 434970)
run conditions: purified mouse IAP, CDP-Star luminescence, 30 min, at 10 µM; stronger effect = lower value
Among all 11,000 compounds or so, about 310 (2.8%) were called active. The sample holds actives, similar compounds and a random draw of the others, so the mix is not that of the screen.
Listed here are compounds together with their documented activity change, negative = activation.
All answers are understood in %, so give the number only.

// known answers, use as guide
>>> value_observed("O=C(CN(Cc1ccccc1F)C(=O)Cn1nnc(-c2cccs2)n1)NC1CCCCC1")
-22.1
>>> value_observed("NC(=O)NC[C@@H]1CC[C@@H](Cc2ccc(-c3ccccc3)cc2)O1")
-0.6
>>> value_observed("COc1ccc2cc(C[C@@H]3CC[C@@H](CNC(N)=O)O3)ccc2c1")
0.55
>>> value_observed("OC[C@@H]1CC[C@@H](Cc2ccc(-c3ccccc3)cc2)O1")
-7.05
>>> value_observed("O=C(NCCCCc1ccccc1)NC[C@@H]1CC[C@@H](Cc2ccc(-c3ccccc3)cc2)O1")
-344
>>> value_observed("COc1ccc(-c2noc(CCCC(=O)NCCc3ccccc3)n2)cc1OC")
0.25
>>> value_observed("COc1ccc(N2CCN(CCCNC(=O)Nc3ccccc3)CC2)cc1")
-16.2
>>> value_observed("COc1ccc(NC(=O)NC[C@@H]2CC[C@@H](Cc3ccc(-c4ccccc4)cc3)O2)cc1")
-182

Given the entry O=C(NC[C@@H]1CC[C@@H](Cc2ccc(-c3ccccc3)cc2)O1)Nc1ccc(Br)cc1 , report its measured activity change, negative = activation. -310

# get_value(readout='activity change, negative = activation', item= COc1cc(NC(=O)c2ccc(F)cc2)c(OC)cc1Cl ) 7.05

----------
# key: entry, value: activation factor
Test system: intestinal alkaline phosphatase [Mus musculus]
measurement description: mouse intestinal phosphatase enzyme activation – biochemical, luminescence, single concentration, confirmation (AID 434970)
run conditions: purified mouse IAP, CDP-Star luminescence, 30 min, at 10 µM; measured here: IAP activation factor, stronger effect = higher value
Screen size: about 11,000 compounds; about 310 (2.8%) were called active. The sample as a whole holds a higher share of actives than the screen did.
Give the figure by itself; no unit, no explanation.

Some compounds with recorded activation factor:
>>> value_observed("COc1ccc(C(c2nnnn2Cc2cccs2)N2CCN(c3ccc(F)cc3)CC2)cc1OC (stereo unspecified)")
0.985
>>> value_observed("Cc1cnc(NC(=O)c2ccco2)s1")
0.954
>>> value_observed("CCOc1ccccc1N1CCN(S(=O)(=O)c2ccc3c4c(cccc24)C(=O)N3)CC1")
0.442
>>> value_observed("COc1cccc(NC(=O)Nc2ccc3c(c2)CCC3)c1")
2.9

Can you look up the measured activation factor of Cc1n[nH]c(C)c1S(=O)(=O)N1CCCC(C(=O)N2CCc3ccccc32)C1 (stereo unspecified) for me? 0.946

What measured activation factor goes with O=C(CCN1CCN(C/C=C/c2ccccc2)CC1)Nc1ccccc1 ? 1.08

What does the data say about its activation factor? Entry: COc1ccc(Cl)cc1NC(=O)CCc1ccccc1 0.97

Which activation factor value is on record for COc1ccccc1/C=C/CN1CCC(n2nccc2NC(=O)CCc2ccccc2)CC1 ? 2.21

Any idea what its activation factor is? The compound is COC(=O)c1cn(CC(=O)NC2CCCCC2)c2ccccc12 1.04

Item under review: COc1cccc(NC(=O)Nc2ccc3c(c2)N(C)C(=O)CS3)c1 . Reported activation factor? 0.986

Recorded activation factor for O=S(=O)(N[C@H](CO)c1ccccc1)c1ccc(Br)cc1F , please? 1.03
